assay: Half life in rat at 1 to 3 mg/kg, iv; assay type: ADME, organism-based; design: dose 1-3 mg/kg, route intravenous; settings: in vivo
experimental readout: half-life (h)

{"columns": ["line notation", "experimental readout", "readout unit", "observed result"],
 "data": [
  ["CCCSc1nc(N2CCC[C@@H](CC(=O)O)C2)ccc1C(=O)NC1CCCCC1", "half-life", "h", 4.4]
]}

* * *

test: Plasma clearance in mouse at 1 to 3 mg/kg; type: ADME, organism-based; parameters: dose 1-3 mg/kg
experimental readout: clearance (mL/min/kg)

{"columns": ["line notation", "observed result"],
 "data": [
  ["CCCSc1nc(N2CCC[C@@H](CC(=O)O)C2)ccc1C(=O)NC1CCCCC1", 16]
]}

* * *

assay: Clearance in po dosed Sprague-Dawley rat pre-dosed with ABT administered 2 hrs prior to ABT administration measured up to 24 hrs; conditions: in vivo
experimental readout: CL/F (mL/min/kg)

{"columns": ["line notation", "observed result"],
 "data": [
  ["O=S(=O)(Cc1c(F)cccc1F)N1CCN(c2ncccc2C(F)(F)F)CC1", 14]
]}

* * *

test: Cmax in po dosed Sprague-Dawley rat measured up to 24 hrs; format: ADME, organism-based; design: route oral; details: in vivo
experimental readout: Cmax (ng/mL)

{"columns": ["line notation", "experimental readout", "readout unit", "observed result"],
 "data": [
  ["CCCSc1ncccc1C(=O)NC1CCCCC1", "Cmax", "ng/mL", 39]
]}

* * *

experiment: Volume of distribution at steady state in dog at 1 to 3 mg/kg; assay type: ADME, organism-based, Canis lupus familiaris; design: dose 1-3 mg/kg; settings: in vivo, read-out: Vdss

{"columns": ["line notation", "Vd [L/kg]"],
 "data": [
  ["CCCSc1nc(N2CCC[C@@H](CC(=O)O)C2)ccc1C(=O)NC1CCCCC1", 0.9]
]}

* * *

biological target: UniProt P50172
Sequence (P50172 whole entry): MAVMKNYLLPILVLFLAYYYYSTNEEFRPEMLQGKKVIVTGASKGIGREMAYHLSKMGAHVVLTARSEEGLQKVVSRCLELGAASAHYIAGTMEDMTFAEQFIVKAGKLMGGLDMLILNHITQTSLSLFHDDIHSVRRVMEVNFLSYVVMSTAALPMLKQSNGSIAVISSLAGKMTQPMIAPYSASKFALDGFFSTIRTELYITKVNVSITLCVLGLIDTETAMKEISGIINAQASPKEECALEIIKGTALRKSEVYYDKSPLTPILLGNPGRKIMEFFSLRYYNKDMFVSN
pIC50: −log10 of the molar value.
experimental readout: pIC50

{"columns": ["compound", "experimental readout", "observed result"],
 "data": [
  ["CCCSc1nc(N2CCC[C@@H](CC(=O)O)C2)ccc1C(=O)NC1CCCCC1 [AZD-4017]", "pIC50", 6.12]
]}

* * *

experiment: Intrinsic clearance in rat hepatocytes assessed per 10^6 cells
Reported hepatocyte CLint values follow for various compounds

{"columns": ["compound", "qualifying sign", "hepatocyte CLint, µL/min/1e6 cells"],
 "data": [
  ["CCCSc1ncccc1C(=O)N1CCCC1c1ccncc1 (stereo not drawn)", "=", 120],
  ["O=S(=O)(Cc1c(F)cccc1F)N1CCN(c2ncccc2C(F)(F)F)CC1", "=", 272],
  ["CCCNc1nc(N2CCC[C@@H](CC(=O)O)C2)ccc1C(=O)NC1CCCCC1", "=", 7],
  ["CCCSc1nc(Oc2ccc(CC(=O)O)cc2)ccc1C(=O)NC1CCCCC1", "<", 2],
  ["CCCOc1nc(N2CCC[C@@H](CC(=O)O)C2)ccc1C(=O)NC1CCCCC1", "=", 9],
  ["CCCSc1ncccc1C(=O)NC1CCC(F)(F)CC1", "=", 130],
  ["CCCSc1ncccc1C(=O)N(C)C1CCOCC1", "=", 90],
  ["CCCSc1ncccc1C(=O)N[C@H]1CC[C@@H](C(=O)O)CC1", "<", 2]
]}
